The values you see were collected from paper PMC3682544.

target: GBD (gelatin-binding domain, ^6FnI^1–2FnII^7–9FnI, residues 305–608) of human FN (Homo sapiens, UniProt P02751, H307D/N528Q/R534K); construct: FN fragments corresponding to residues 305–608 (GBD); made in house; test: Fluorescence polarization titrations of 5-carboxyfluorescein-labelled collagen peptides with GBD; settings: FA: fluorescence polarization, 75 nM N-terminal 5-carboxyfluorescein peptide, increasing protein, PBS, 25 °C, single binding model
Sequence (P02751 305-608 H307D/N528Q/R534K): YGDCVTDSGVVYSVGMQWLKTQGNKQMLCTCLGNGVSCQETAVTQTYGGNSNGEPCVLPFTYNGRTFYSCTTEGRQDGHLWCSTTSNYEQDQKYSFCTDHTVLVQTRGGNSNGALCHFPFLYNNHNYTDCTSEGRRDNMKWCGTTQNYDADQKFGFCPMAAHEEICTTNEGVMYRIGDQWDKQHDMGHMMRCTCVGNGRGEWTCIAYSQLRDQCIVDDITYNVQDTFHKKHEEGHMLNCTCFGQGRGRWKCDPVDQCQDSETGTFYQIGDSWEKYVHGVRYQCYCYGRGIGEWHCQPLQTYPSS
Square brackets hold non-standard residues; d marks the D form. Ends that are not written are not given here. * marks the point of attachment. 5FAM = O=C1OC2(c3ccc(O)cc3Oc3cc(O)ccc32)c2ccc(C(=O)*)cc21; Hyp = O=C(O)[C@@H]1C[C@@H](O)CN1
pKd values for the substances below.
When answering, recall that pKd equals minus log10 of the concentration in mol/L, and write that number alone.

[
  {
    "substance": "5FAM-QGARGF[Hyp]GT[Hyp]GL[Hyp]GFKGIRGHNGLDGLKGQ[Hyp]GA[Hyp]GVKGE[Hyp]GA[Hyp]GENG [C]",
    "pKd": 4.59
  },
  {
    "substance": "5FAM-GPQGIAGQRGVVGL[Hyp]GQRGERGF[Hyp]GL[Hyp]GPSGE[Hyp]GKQGPSGASGERGP[Hyp]G [B]",
    "pKd": 4.82
  },
  {
    "substance": "5FAM-GPQGARGL[Hyp]GTAGL[Hyp]GMKGHRGFSGLDGAKGDAGPAGPKGE[Hyp]GS[Hyp]GENG [A]",
    "pKd": 4.01
  }
]

From here, focus on the item given below.
Please give the measured pKd for this substance: 5FAM-GPQGLLGA[Hyp]GILGL[Hyp]GSRGERGL[Hyp]GVAGAVGEPGPLGIAGP[Hyp]GARGP[Hyp]G [D]
5.24
